- system: sigma receptors
- measurement description: Inhibition of 3H-DTG binding to sigma receptors in rat brain in vitro
- test context: 2 nM 3H-DTG, rat brain without cerebellum, 25° C., 20 min
assay metric: log10(IC50) (log10 of the value in nM)
A difference of one corresponds to tenfold IC50; all values are log10 with IC50 in nM.

c1ccc2c(c1)COC21CCN(CCCCC2CNc3ccccc32)CC1 (stereo not drawn) [Compound 13b] : 0.00

Would you mind giving log10(IC50) for every compound in the list below?
1. O=C1N(CCN2CCC3(CC2)OCc2ccccc23)CCN1C1CCCCC1 [Compound 3d]
2. FC(F)(F)c1ccc2[nH]nc(CCCCN3CCC4(CC3)OCc3ccccc34)c2c1 [Compound 18a]
3. c1cncc(-n2cc(CCCCN3CCC4(CC3)COCc3ccccc34)c3ccccc32)c1 [Compound 9k]
4. Fc1ccc2c(c1)C1(CCN(CCCCc3c[nH]c4ccccc34)CC1)OC2 [Compound 2jj]
5. CN(C)c1ccc(C2CCN(CCCCc3cn(-c4ccc(F)cc4)c4ccccc34)CC2)cc1 [Compound 9o]
6. Fc1ccc(-n2cc(OCCCN3CCC4(CC3)OCc3ccccc34)c3ccccc32)cc1 [Compound 8a]

0.86
-0.25
-0.04
0.15
0.83
-0.68

Origin of values: patent US6207677A
